Assay notes: Oral bioavailability in Beagle dog
Type: ADME, organism-based, Canis lupus familiaris
Condition info: in vivo
Value type: bioavailability (%)

(A) Cc1cc2ccc1[C@@H](C)COC(=O)Nc1ccc(S(=O)(=O)C3CC3)c(c1)CN(C)C(=O)[C@@H]2Nc1ccc2c(N)nccc2c1
(B) Cc1cc2ccc1[C@@H](C)COC(=O)Nc1ccc(C3CC3)c(c1)CN(C)C(=O)[C@@H]2Nc1ccc2c(N)nccc2c1
Input: Parameter metric = bioavailability. Return the lower-valued option from A and B . Reply with the label of the item you choose.
Output: A
(A: 1%, B: 12%)

----------
Assay notes: Half-life in human liver microsomes
Format: ADME
Value type: half-life (h)

Cc1cc2ccc1[C@@H](C)COC(=O)Nc1ccc(C3(C(=O)O)CCCCC3)c(c1)CN(C)C(=O)[C@@H]2Nc1ccc2c(N)ncc(F)c2c1 1.57

(a) Cc1cc2ccc1[C@@H](C)COC(=O)Nc1ccc(C3(c4nnn[nH]4)CC3)c(c1)CN(C)C(=O)[C@@H]2Nc1ccc2c(N)ncc(F)c2c1
(b) Cc1cc2ccc1[C@@H](C)COC(=O)Nc1ccc(C3CC3)c(c1)CN(C)C(=O)[C@@H]2Nc1ccc2c(N)ncc(F)c2c1
Input: Please indicate which entry, a or b , has the lower recorded half-life value. In your reply, give the label of the chosen option.
Output: b
(b: 0.383 h, a: 1.9 h)

Cited source for all entries: ChEMBL document CHEMBL3853337
